Provenance of the data: paper PMC7596504

experimentalSystem: T1, MORC4 ATPaseCW cassette (aa 29-486) (human, UniProt Q8TE76 29-486)
T1 construct: ATPase domain and CW domain of human MORC4, aa 29-486, cloned into pDEST15; Homodimer in the crystal with AMPPNP and Mg2+; source: E. coli Rosetta2 (DE3) pLysS or BL21 (DE3) RIL, purified (glutathione agarose, GST tag cleaved, SEC)
T1 sequence (looked up): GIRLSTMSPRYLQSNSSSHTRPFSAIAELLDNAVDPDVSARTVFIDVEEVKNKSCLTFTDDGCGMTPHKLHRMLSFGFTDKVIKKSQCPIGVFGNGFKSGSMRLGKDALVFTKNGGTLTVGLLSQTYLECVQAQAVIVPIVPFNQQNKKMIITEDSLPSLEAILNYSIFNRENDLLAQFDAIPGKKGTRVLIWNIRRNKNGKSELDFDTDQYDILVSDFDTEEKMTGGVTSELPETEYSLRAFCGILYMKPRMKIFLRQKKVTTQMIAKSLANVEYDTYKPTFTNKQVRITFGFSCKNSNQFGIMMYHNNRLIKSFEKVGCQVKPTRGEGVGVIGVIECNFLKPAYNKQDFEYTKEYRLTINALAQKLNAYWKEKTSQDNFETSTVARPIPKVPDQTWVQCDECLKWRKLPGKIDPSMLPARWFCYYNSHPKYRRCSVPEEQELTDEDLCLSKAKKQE
assayNotes: other fluorescence titration; tryptophan fluorescence, 25 °C; 0.5-1 µM ATPaseCW or CW in 20 mM Tris pH 6.8, 100 mM NaCl, 2 mM DTT, increasing histone peptide
testContext: both partners purified
Where no end group is shown, it is not given here. Me3 = trimethyl
reportedMetric: Kd

### Prompt Item ARTK(Me3)QTARKSTG (peptide, UniProt P68431 2-13, looked up, N-terminal tail of histone H3, aa 1-12) [histone H3K4me3 peptide (aa 1-12 of H3)] has what recorded Kd?
### Response 0.18 µM
